Each item that follows carries a reported Ki.
# target or system: T1, mouse MMP-2 (Mus musculus, UniProt P33434)
# T1 construct: purchased R&D Systems 924-MP-010
# T1 sequence (P33434 110-662): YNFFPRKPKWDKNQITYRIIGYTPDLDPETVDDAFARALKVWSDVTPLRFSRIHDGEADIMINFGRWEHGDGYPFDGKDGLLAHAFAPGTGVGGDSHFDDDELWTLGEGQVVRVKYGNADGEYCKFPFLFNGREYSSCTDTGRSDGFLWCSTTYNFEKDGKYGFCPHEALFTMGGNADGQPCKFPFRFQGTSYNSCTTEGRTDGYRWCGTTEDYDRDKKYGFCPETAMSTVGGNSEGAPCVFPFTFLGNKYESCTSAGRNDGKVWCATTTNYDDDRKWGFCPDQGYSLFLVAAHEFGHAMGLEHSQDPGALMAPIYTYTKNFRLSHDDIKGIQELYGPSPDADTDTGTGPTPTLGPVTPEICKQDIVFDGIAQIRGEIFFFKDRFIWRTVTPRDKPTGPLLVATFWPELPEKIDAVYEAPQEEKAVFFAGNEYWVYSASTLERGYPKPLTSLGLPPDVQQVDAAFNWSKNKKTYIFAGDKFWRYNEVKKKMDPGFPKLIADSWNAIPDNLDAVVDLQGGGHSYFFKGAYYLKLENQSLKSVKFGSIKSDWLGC
# assay method text: Enzyme inhibition assay (single point inhibition, IC50/Ki,app), substrate M-2350
# Format: biochemical
# condition parameters: small-scale sFab; Table 10
Reply numerically in nM, unit not repeated.

Take a look at these entries with their results.
molecule	observed property	experimental result
M0307-F04: affinity matured variant of M237-D02, sFab (antibody, V domains shown) VH: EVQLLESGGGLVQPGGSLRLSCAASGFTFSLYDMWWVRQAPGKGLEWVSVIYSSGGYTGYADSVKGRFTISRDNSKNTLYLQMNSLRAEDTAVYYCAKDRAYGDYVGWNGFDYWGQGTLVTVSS VL: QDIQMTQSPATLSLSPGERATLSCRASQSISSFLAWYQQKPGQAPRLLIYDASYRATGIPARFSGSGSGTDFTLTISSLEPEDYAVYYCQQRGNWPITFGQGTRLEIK	Ki	2.2
M0301-D12: affinity matured variant of M237-D02, sFab (antibody, V domains shown) VH: EVQLLESGGGLVQPGGSLRLSCAASGFTFSMYDMWWVRQAPGKGLEWVSVIYSSGGYTSYADSVKGRFTISRDNSKNTLYLQMNSLRAEDTAVYYCAKDRAYGDYVGWNGFDYWGQGTLVTVSS VL: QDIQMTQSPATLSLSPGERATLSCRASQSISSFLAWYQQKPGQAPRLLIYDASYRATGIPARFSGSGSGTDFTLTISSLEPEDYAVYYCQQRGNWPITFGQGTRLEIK	Ki	25

Proceeding to the next molecule to report its Ki.
So what does the record say about Ki for M0275-E12: affinity matured variant of M237-D02, sFab (antibody, V domains shown) VH: EVQLLESGGGLVQPGGSLRLSCAASGFTFSHYDMWWVRQAPGKGLEWVSVIYSSGGFTGYADSVKGRFTISRDNSKNTLYLQMNSLRAEDTAVYYCAKDRAYGDYVGWNGFDYWGQGTLVTVSS VL: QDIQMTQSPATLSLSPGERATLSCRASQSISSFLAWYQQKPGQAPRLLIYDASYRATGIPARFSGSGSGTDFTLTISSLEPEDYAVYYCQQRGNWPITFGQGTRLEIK ?
15
